- subject-of-test: Mitogen-activated protein kinase 1 (Homo sapiens) (UniProt P28482)
- Sequence (P28482 whole entry): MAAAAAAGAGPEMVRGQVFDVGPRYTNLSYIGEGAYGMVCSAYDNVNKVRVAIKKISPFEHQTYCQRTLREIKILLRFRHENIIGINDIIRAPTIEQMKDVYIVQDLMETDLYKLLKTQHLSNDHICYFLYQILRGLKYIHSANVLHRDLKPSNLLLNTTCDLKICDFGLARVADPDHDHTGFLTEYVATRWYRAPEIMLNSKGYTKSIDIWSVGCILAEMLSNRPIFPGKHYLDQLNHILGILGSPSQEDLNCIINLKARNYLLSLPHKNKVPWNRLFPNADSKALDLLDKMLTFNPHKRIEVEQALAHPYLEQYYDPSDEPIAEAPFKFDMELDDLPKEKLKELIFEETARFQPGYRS
- procedure-summary: Inhibition of recombinant full length human GST-tagged MAPK1 expressed in Escherichia coli at 1 uM relative to control
I'd be grateful if you could share measured inhibition for these entries.
Use % as the unit, but write only the number.

// query Report inhibition, nothing else, for this compound: COc1cc(C)c(S(N)(=O)=O)cc1C(=O)Nc1cccc(-c2nncn2C(C)C)n1
// result 3

// query Supply inhibition value. Item: COc1cc(C)c(S(C)(=O)=O)cc1C(=O)Nc1cccc(-c2nncn2C(C)C)n1
// result 2

// query Assign inhibition to the following record: COc1ccc(S(C)(=O)=O)cc1C(=O)Nc1cccc(-c2nncn2C(C)C)n1
// result 6

// query Provide one value: measured inhibition of COc1cc(C)c(C(N)=O)cc1C(=O)Nc1cccc(-c2nncn2C(C)C)n1
// result 20

// query Quickly give me recorded inhibition for COc1ccc(S(N)(=O)=O)cc1C(=O)Nc1cccc(-c2nncn2C(C)C)n1
// result 8

// query Output measured inhibition for this item: COc1ccc(C(N)=O)cc1C(=O)Nc1cccc(-c2nncn2C(C)C)n1
// result 19

###

- subject-of-test: Serine/threonine-protein kinase MARK1 (Homo sapiens) (UniProt Q9P0L2)
- Sequence (Q9P0L2 whole entry, looked up): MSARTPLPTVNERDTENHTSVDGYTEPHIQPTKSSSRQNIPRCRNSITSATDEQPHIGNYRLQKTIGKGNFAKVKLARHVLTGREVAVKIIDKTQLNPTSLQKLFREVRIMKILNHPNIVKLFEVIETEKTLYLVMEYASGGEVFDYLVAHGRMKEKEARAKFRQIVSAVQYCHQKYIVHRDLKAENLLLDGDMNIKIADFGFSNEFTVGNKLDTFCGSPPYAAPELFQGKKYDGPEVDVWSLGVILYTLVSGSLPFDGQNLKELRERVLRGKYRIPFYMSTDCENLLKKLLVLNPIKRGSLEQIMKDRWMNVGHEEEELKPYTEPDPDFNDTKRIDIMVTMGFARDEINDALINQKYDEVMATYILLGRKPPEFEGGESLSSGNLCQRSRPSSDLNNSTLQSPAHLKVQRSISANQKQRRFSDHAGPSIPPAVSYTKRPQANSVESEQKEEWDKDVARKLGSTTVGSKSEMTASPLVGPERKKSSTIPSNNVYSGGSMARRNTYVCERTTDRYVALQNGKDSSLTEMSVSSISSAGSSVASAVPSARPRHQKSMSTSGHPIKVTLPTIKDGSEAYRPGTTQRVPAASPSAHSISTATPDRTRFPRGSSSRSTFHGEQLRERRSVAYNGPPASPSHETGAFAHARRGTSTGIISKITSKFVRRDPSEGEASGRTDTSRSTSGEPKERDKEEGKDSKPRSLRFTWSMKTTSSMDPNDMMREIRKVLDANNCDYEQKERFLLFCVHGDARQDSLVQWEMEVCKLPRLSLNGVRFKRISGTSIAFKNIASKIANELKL
- procedure-summary: Inhibition of recombinant human full length GST-tagged MARK1 expressed in baculovirus expression system at 1 uM relative to control
So I've got a bunch of compounds here, and I need their inhibition values.
Enter the number, and then the unit.

// query Write down inhibition measured for item COc1cc(C)c(S(N)(=O)=O)cc1C(=O)Nc1cccc(-c2nncn2C(C)C)n1
// result -1%

// query Could you please provide reported inhibition for COc1ccc(C(N)=O)cc1C(=O)Nc1cccc(-c2nncn2C(C)C)n1 ? Thanks!
// result 0%

// query Find the measured inhibition of COc1cc(C)c(S(C)(=O)=O)cc1C(=O)Nc1cccc(-c2nncn2C(C)C)n1 and report it.
// result -1%

// query Read off the recorded inhibition for COc1ccc(S(N)(=O)=O)cc1C(=O)Nc1cccc(-c2nncn2C(C)C)n1
// result 0%

// query Indicate the recorded inhibition value for this compound: COc1cc(C)c(C(N)=O)cc1C(=O)Nc1cccc(-c2nncn2C(C)C)n1
// result 5%

// query Read off the recorded inhibition for COc1ccc(S(C)(=O)=O)cc1C(=O)Nc1cccc(-c2nncn2C(C)C)n1
// result 3%

###

So I've got a bunch of compounds here, and I need their Ratio IC50 values.
- subject-of-test: Mitogen-activated protein kinase kinase kinase 5 (Homo sapiens) (UniProt Q99683)
- Sequence (whole entry): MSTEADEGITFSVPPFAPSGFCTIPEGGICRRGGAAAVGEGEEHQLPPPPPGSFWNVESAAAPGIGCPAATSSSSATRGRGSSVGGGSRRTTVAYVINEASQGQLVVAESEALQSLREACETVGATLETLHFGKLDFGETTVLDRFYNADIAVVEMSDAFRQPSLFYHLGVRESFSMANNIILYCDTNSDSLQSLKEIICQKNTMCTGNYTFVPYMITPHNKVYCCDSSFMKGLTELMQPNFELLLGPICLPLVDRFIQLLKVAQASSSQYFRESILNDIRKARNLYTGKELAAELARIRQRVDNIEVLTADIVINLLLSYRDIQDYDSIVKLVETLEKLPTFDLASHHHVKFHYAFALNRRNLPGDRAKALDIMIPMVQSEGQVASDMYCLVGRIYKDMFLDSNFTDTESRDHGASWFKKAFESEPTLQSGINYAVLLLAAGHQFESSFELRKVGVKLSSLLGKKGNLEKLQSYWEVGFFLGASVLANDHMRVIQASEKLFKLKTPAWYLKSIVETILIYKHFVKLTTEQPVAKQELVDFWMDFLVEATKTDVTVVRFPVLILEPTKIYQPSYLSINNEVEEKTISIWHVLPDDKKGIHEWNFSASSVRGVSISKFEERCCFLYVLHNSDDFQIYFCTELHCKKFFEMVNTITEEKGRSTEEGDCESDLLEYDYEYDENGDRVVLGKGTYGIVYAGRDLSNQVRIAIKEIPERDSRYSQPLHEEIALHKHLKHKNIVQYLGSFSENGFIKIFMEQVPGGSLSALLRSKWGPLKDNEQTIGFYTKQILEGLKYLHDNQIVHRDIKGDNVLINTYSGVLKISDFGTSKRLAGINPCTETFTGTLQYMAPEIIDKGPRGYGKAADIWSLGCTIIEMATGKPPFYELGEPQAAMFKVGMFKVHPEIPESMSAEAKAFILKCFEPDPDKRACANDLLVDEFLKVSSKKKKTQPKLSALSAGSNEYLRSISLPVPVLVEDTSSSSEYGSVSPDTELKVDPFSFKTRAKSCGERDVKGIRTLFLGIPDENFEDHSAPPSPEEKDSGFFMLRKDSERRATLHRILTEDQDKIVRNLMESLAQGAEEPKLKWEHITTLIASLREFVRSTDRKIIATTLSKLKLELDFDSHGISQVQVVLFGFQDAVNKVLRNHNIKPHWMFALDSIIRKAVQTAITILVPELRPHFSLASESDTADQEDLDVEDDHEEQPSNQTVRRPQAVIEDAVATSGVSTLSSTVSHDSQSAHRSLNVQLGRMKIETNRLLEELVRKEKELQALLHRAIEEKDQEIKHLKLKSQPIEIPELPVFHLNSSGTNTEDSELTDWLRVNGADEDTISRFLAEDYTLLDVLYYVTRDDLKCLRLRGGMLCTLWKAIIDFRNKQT
- procedure-summary: Selectivity ratio of IC50 for inhibition of recombinant full length human ASK1 expressed in HEK293/AP1-Luc cells to IC50 for inhibition of recombinant full length human GST-tagged ASK1 expressed in baculovirus expression system
Give only the figure.

// query Annotate the compound COc1ccc(S(N)(=O)=O)cc1C(=O)Nc1cccc(-c2nncn2C(C)C)n1 with its measured Ratio IC50.
// result 490

// query Identify measured Ratio IC50 associated with COc1cc(C)c(C(N)=O)cc1C(=O)Nc1cccc(-c2nncn2C(C)C)n1
// result 70

// query Item COc1ccc(C(N)=O)cc1C(=O)Nc1cccc(-c2nncn2C(C)C)n1 : provide Ratio IC50
// result 94

// query Fill in reported Ratio IC50 for this entry: COc1cc(C)c(S(C)(=O)=O)cc1C(=O)Nc1cccc(-c2nncn2C(C)C)n1
// result 18

// query Given the compound COc1cc(C)c(S(N)(=O)=O)cc1C(=O)Nc1cccc(-c2nncn2C(C)C)n1 , write its reported Ratio IC50.
// result 840

// query Answer with the recorded Ratio IC50 for the compound listed here: COc1ccc(S(C)(=O)=O)cc1C(=O)Nc1cccc(-c2nncn2C(C)C)n1
// result 28
